Target chain: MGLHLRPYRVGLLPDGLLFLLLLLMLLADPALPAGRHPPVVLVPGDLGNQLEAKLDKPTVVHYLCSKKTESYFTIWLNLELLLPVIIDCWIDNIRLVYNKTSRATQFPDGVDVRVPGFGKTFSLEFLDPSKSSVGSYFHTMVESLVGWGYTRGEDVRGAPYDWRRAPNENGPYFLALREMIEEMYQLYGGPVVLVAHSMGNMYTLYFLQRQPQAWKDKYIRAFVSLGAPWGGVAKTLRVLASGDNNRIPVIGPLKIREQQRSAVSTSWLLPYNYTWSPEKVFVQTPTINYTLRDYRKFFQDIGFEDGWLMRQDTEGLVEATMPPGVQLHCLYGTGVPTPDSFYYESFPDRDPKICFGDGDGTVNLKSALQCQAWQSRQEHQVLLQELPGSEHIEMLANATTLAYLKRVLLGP
outcome.measure: IC50 (mM)
Expressed in mM, but write only the number.

Recorded IC50 of CCCCCCCCCCP(=O)(O)OC(COCCCCCCCCCC(=O)OC)COP(=O)([O-])OCC[N+](C)(C)C (stereo unspecified) [ESTER OF PHOSPHOLIPID] , please.
9.75
